Data credit: PubChem BioAssay (NCATS)

System: NIH3T3
Test: Cytotoxic Profiling of Annotated Libraries Using Quantitative High-Throughput Screening (AID 1296008); note: % is set by controls: 0 for no effect and ±100 for the full control effect; nearly all actives have a fitted effect of over 60% in size
Conditions: Five cell lines viability, CellTiter-Glo ATP luminescence, 48-72 h; active compounds read low
Inconclusive results are not listed. Activity calls are given as the source filed them. Calls come from the whole dose curve; as a rule, active = well fitted inhibition curve with a large enough effect; inconclusive = small, poorly fitted or top-dose-only effect; inactive = flat fitted curve, though single readings scatter.
// reported max response per item

Use the examples below as a reference point.
compound | endpoint result
COc1ccc(/C=C/C(=O)O[C@H]2[C@H](O[C@H]3[C@@H]4C=CO[C@@H](O[C@@H]5O[C@H](CO)[C@@H](O)[C@H](O)[C@H]5O)[C@@H]4[C@@]4(CO)O[C@@H]34)O[C@@H](C)[C@H](O)[C@H]2OC(C)=O)cc1 | -16.4% (inactive)
COC(=O)C1=COC(O[C@@H]2O[C@H](CO)[C@@H](O)[C@H](O)[C@H]2O)[C@H]2[C@@H]1[C@H](OC(=O)CCc1ccc(O)cc1)C[C@]2(C)O (stereo partly drawn) | 2.76% (inactive)
CC1=CC(=O)CC(C)(C)[C@H]1/C=C/C(CO)O[C@@H]1O[C@H](CO)[C@@H](O)[C@H](O)[C@H]1O (stereo partly drawn) | -2.41% (inactive)
CC1(C)CC[C@]2(C(=O)OC3OC(CO)C(O)C(O)C3O)CC[C@]3(C)C(=CCC4[C@@]5(C)CC[C@H](OC6OC(C(=O)O)C(O)C(OC7OC(CO)C(O)C(O)C7O)C6O)C(C)(C)C5CC[C@]43C)C2C1 (stereo partly drawn) | 0.867% (inactive)
CC(NC(=O)CCc1nc2ccccc2c(=O)[nH]1)c1ccccc1 (stereo not drawn) | 2.87% (inactive)
CC(Cc1cc2c(c(C(N)=O)c1)N(CCCO)CC2)NCCOc1ccccc1OCC(F)(F)F (stereo not drawn) | 2.09% (inactive)
CC/C=C\[C@H](O)[C@H](O)C1=C(C)C(=O)[C@]2(O1)C(=O)N[C@@](OC)(C(=O)c1ccccc1)[C@@H]2O | 1.26% (inactive)
CCCCOC(=O)NC(=O)C1c2ccccc2Oc2ccccc21 | -5.65% (inactive)
O=C1NC(Cc2c[nH]c3ccccc23)C(=O)NC1Cc1c[nH]c2ccccc12 (stereo not drawn) | -2.22% (inactive)
COC(=O)c1ccnc(-c2cc(C(=O)NCCc3ccccc3)ccn2)c1 | 1.58% (inactive)

query: Query max response on NIH3T3 for O=C(C(c1ccccc1)c1ccccc1)N1CCN(CC(O)COc2cccc3ncccc23)CC1 (stereo not drawn)
result: -26.9% (inactive)

query: Query max response on NIH3T3 for COC(=O)[C@@H](O)[C@H]1[C@@]2(C)CC3(O)[C@@H](C(=O)[C@H]2O)[C@]24O[C@]25CC(=O)O[C@@H](c2ccoc2)[C@]5(C)CCC4[C@]13C (stereo partly drawn)
result: -5.38% (inactive)

query: Query max response on NIH3T3 for C[C@@H]1O[C@@H](O[C@H]2[C@H](OC(=O)[C@]34CCC(C)(C)C[C@H]3C3=CCC5[C@@]6(C)C[C@H](O)[C@H](O[C@@H]7O[C@H](CO)[C@@H](O[C@H]8OC[C@](O)(CO)[C@H]8O)[C@H](O)[C@H]7O)[C@@](C)(CO)C6[C@H](O)C[C@@]5(C)[C@]3(C)C[C@H]4O)OC[C@H](O)[C@@H]2O)[C@H](O)[C@H](O)[C@H]1O[C@@H]1OC[C@@H](O)[C@H](O[C@@H]2OC[C@](O)(CO)[C@H]2O)[C@H]1O (stereo partly drawn)
result: -0.781% (inactive)

query: Query max response on NIH3T3 for O=C(O)c1cc(-c2c(-c3ccccc3)nn3ccccc23)n[nH]c1=O
result: -3.95% (inactive)

query: Query max response on NIH3T3 for CC(CO)C1CCC2(C)CC3C(CO)CC(O)C3C(C)(O)C/C=C/12 (stereo not drawn)
result: 0.217% (inactive)

query: Query max response on NIH3T3 for Cc1cc(C)c2c(N)c(C(=O)NCc3ccc(Cl)cc3)sc2n1
result: -1.38% (inactive)

query: Query max response on NIH3T3 for O=C(Nc1ccc(S(=O)(=O)Nc2ccccc2Cl)c(Cl)c1)c1ccccn1
result: -3.89% (inactive)

query: Query max response on NIH3T3 for C=C1CC23CC1CCC2C12OC(=O)C(C)(CCC1O)C2C3C(=O)O (stereo not drawn)
result: 3.76% (inactive)

query: Query max response on NIH3T3 for CC1CCC2(C(=O)O)CCC3(C)C(=CCC4C5(C)CCC(OC(=O)/C=C/c6ccccc6)C(C)(C)C5CCC43C)C2C1C (stereo not drawn)
result: -3.46% (inactive)

query: Query max response on NIH3T3 for CCc1cc(CN2CC(C(=O)O)C2)sc1-c1noc(-c2ccc(Oc3ccccc3)cc2)n1
result: -43% (inactive)

query: Query max response on NIH3T3 for C/C=C(\C)C(=O)O[C@H]1[C@@H](O[C@]2(COC(=O)CC(C)C)O[C@H](COC(=O)C(C)CC)[C@@H](OC(C)=O)[C@@H]2O)O[C@H](COC(C)=O)[C@@H](O)[C@@H]1O (stereo partly drawn)
result: -0.857% (inactive)

====

Assay: Primary qHTS for inhibitors of nuclear receptor binding SET domain protein 2 (NSD2) in an isogenic RCH-ACV NSD2 p.E1099K mutant (9B) (AID 1645876); note: nearly all actives have a fitted effect of over 70% in size
Settings: RCH-ACV (leukaemia line) NSD2 E1099K (9B) viability, CellTiter-Glo, 72 h; series mostly up to 44.9 µM
Results filed as inconclusive are left out. The source made the active and inactive calls. Calls come from the whole dose curve; as a rule, active = well fitted inhibition curve with a large enough effect; inconclusive = small, poorly fitted or top-dose-only effect; inactive = flat fitted curve, though single readings scatter.
Tick one outcome: true = active, false = inactive

See these solved cases before continuing.
compound | assigned label
c1cn2cc(-c3ccc4cn[nH]c4c3)nc(Nc3ccc(N4CCOCC4)cc3)c2n1 | true
N#C[C@@H]1C[C@H](F)CN1C(=O)CNC1[C@H]2CN(C(=O)c3ccc(F)cc3)C[C@@H]12 (some centres undefined) | false
C=C1[C@H](OC(C)=O)[C@H]2[C@@H](OC(C)=O)[C@](C)(OC(C)=O)C[C@]2(OC(C)=O)C(=O)[C@H](C)/C=C/C(C)(C)C(=O)[C@H](OC(=O)C(C)CC)[C@H]1OC(C)=O (some centres undefined) | false

We next turn to a different compound, shown below.
query: Given CN(C)c1nc(NC2CCC(NCCc3ccc(Br)cc3OC(F)(F)F)CC2)nc2ccccc12 (centres undefined) , state the outcome it received in this test.
result: true

====

System: CASKI
Assay: Primary qHTS to identify gynecologic anti-cancer compounds using libraries of approved drugs and bioactive compounds (AID 1345084); note: % is set by controls: 0 for no effect and ±100 for the full control effect; nearly all actives have a fitted effect of over 55% in size
Conditions: Gynecologic cancer cell panel viability, ATPlite luminescence, 48 h; series mostly up to 57.5 µM
Inconclusive results are not listed. Activity calls are given as the source filed them. The call rests on the fitted dose curve; in most records, active means well fitted cell-killing curve with a large enough effect; inconclusive means small, poorly fitted or top-dose-only effect, or effect the other way; inactive means flat fitted curve, though single readings scatter.
Tick one outcome: active, inactive

See these solved cases before continuing.
compound | assigned label
CO/N=C(/C(=O)N[C@@H]1C(=O)N2C(C(=O)O)=C(Cn3ccc(=N)n3CCO)CS[C@H]12)c1csc(N)n1 | inactive
C[C@H](NC(c1cccc2[nH]c(=O)c(=O)[nH]c12)P(=O)(O)O)c1ccc(Br)cc1 (stereo partly drawn) | inactive

We next turn to a different compound, shown below.
query: Given CC(C)CNCc1ccc(-c2ccccc2S(=O)(=O)N2CCCC2)cc1 , state the outcome it received in this test.
result: inactive

====

System: CRL-7250
Assay: Cytotoxic Profiling of Annotated Libraries Using Quantitative High-Throughput Screening (AID 1296008); note: % is set by controls: 0 for no effect and ±100 for the full control effect; nearly all actives have a fitted effect of over 60% in size
Details: Five cell lines viability, CellTiter-Glo ATP luminescence, 48-72 h; active compounds read low
Method: Cell-based phenotypic screening is a commonly used approach to discover biological pathways, novel drug targets, chemical probes and high-quality hit-to-lead molecules. […] A pintool (Kalypsys) was used to transfer 23 nL of compound solution to the 1536-well assay plates. […] Plates were left at room temperature for 10 min before imaging the ATP-coupled luminescence using a ViewLux microplate imager (PerkinElmer, Waltham, MA).
Results filed as inconclusive are left out.
reported property: max response (%)
Numbers only; they are read as %.

Use the examples below as a reference point.
molecule | reported property | quantity unit | endpoint result
C[C@@H]1O[C@@H](O[C@H]2[C@H](O)[C@@H](O)[C@H](OC3CCC4(C)C5CCC(C)(C(CO)OC6OC(CO)C(O)C(O)C6O)CC5=CCC4C3(C)C)O[C@@H]2CO)[C@H](O)[C@H](O)[C@H]1O (some centres undefined) | max response | % | 2.65
CC(=O)c1c(O)cc(O[C@@H]2O[C@H](CO)[C@@H](O)[C@H](O)[C@H]2O)cc1O | max response | % | -2.16
CC(=O)NC1C(OC(C)(C)C2CCC3(C)C=C(C4CCC5C4(C)CC(O)C4OC(C(C)(C)O)CCC45C)CCC3O2)OC(CO)C(O)C1O (centres undefined) | max response | % | 0.702

query: State the recorded max response for this entry: CC1=C(C(=O)O)/C(=C/CO[C@@H]2O[C@H](COC(=O)/C=C/c3ccc(O)cc3)[C@@H](O)[C@H](O)[C@H]2O)C(O)C1 (some centres undefined)
result: 0.839
